Test system: MDA-MB-435
Assay: NCI tumour cell line growth inhibition, 48 h
endpoint label: TGI (µM)
Entry rule: numbers only, all in µM.

CSc1nc2c(c(=O)[nH]1)N=C1c3ccccc3C(=O)C1C(c1ccc(F)cc1)N2 (stereo unspecified) = 8.76
COC(CC1(CCNc2ccccc2)C(=O)N(COCC[Si](C)(C)C)c2ccccc21)OC (stereo unspecified) = 38.5

// fetch TGI; item: `Cc1ccc(C(=O)Nc2ccc(CN3CCN(C)CC3)c(C(F)(F)F)c2)cc1C#Cc1cnc(N)cc1C#N` ; system: MDA-MB-435 0.659

// fetch TGI; item: CCn1c(O)c(C(=O)NC(C)c2ccc([N+](=O)[O-])cc2)c(=O)n(CC)c1=S (stereo unspecified) ; system: MDA-MB-435 13.6

// fetch TGI; item: `COc1cc(Nc2nc3cc(N)cc(N)c3nc2-c2ccccc2)cc(OC)c1` ; system: MDA-MB-435 23.8

Every entry's value here was drawn from PubChem BioAssay (NCI).
